Provenance of the data: the supplement of paper PMC10307832

- Test system: NCI-H647
- experimental.details: relative viability (nuclei count vs DMSO), 5 days (fraction); higher = more cells survive
- experimental.context: first compound 0.0002 µM
measured.attribute: relative viability

Lookup: Dear colleague, I am looking for the recorded relative viability of the following compound: CC(=O)O[C@@]12CO[C@@H]1C[C@H](O)[C@@]1(C)C(=O)[C@H](O)C3=C(C)[C@@H](OC(=O)[C@H](O)[C@@H](NC(=O)OC(C)(C)C)c4ccccc4)C[C@@](O)([C@@H](OC(=O)c4ccccc4)[C@H]21)C3(C)C [Docetaxel] + Nc1nc2[nH]cc(CCc3ccc(C(=O)N[C@@H](CCC(=O)O)C(=O)O)cc3)c2c(=O)[nH]1 [Pemetrexed] (partner 0.2 µM)
Found: 0.175

***
Lookup: What relative viability value was documented for this compound, CC(=O)O[C@@]12CO[C@@H]1C[C@H](O)[C@@]1(C)C(=O)[C@H](O)C3=C(C)[C@@H](OC(=O)[C@H](O)[C@@H](NC(=O)OC(C)(C)C)c4ccccc4)C[C@@](O)([C@@H](OC(=O)c4ccccc4)[C@H]21)C3(C)C [Docetaxel] + CS(=O)(=O)CCNCc1ccc(-c2ccc3ncnc(Nc4ccc(OCc5cccc(F)c5)c(Cl)c4)c3c2)o1 [Lapatinib] (partner 2 µM) ?
Found: 0.868

* * *

- Tested on: NCI-H1651
- experimental.details: relative viability (nuclei count vs DMSO), 5 days (fraction); higher = more cells survive
- experimental.context: first compound 0.1581 µM
Catalogue of relative viability readings, one per entry.
// response body must contain only the number

Solved entries (count: 3):
Lookup: Looking for the measured relative viability of COc1cc2nccc(Oc3ccc(NC(=O)Nc4cc(C)on4)c(Cl)c3)c2cc1OC [Tivozanib] + CC1(C)CCC(c2ccc(Cl)cc2)=C(CN2CCN(c3ccc(C(=O)NS(=O)(=O)c4ccc(N[C@H](CCN5CCOCC5)CSc5ccccc5)c(S(=O)(=O)C(F)(F)F)c4)cc3)CC2)C1 [Navitoclax] (partner 0.5 µM) , can you help?
Found: 0.983

Lookup: Please report the recorded relative viability for Nc1ccn([C@@H]2O[C@H](CO)[C@@H](O)[C@@H]2O)c(=O)n1 [Cytarabine] + CC(=O)Nc1cccc(-n2c(=O)n(C3CC3)c(=O)c3c(Nc4ccc(I)cc4F)n(C)c(=O)c(C)c32)c1 [Trametinib] (partner 0.02 µM) .
Found: 0.591

Lookup: Given COc1cc2nccc(Oc3ccc(NC(=O)Nc4cc(C)on4)c(Cl)c3)c2cc1OC [Tivozanib] + CCNC(=O)c1noc(-c2cc(C(C)C)c(O)cc2O)c1-c1ccc(CN2CCOCC2)cc1 [Luminespib] (partner 0.01 µM) , state its recorded relative viability.
Found: 0.883

---
Lookup: Endpoint output: relative viability of COc1cc2nccc(Oc3ccc(NC(=O)Nc4cc(C)on4)c(Cl)c3)c2cc1OC [Tivozanib] + NC(=O)Nc1cc(-c2cccc(F)c2)sc1C(=O)N[C@H]1CCCNC1 [AZD7762] (partner 0.2 µM) . Value?
Found: 0.301

* * *

- System: ChaGo-K-1
- experimental.details: relative viability (nuclei count vs DMSO), 5 days (fraction); higher = more cells survive
- experimental.context: first compound 0.0002 µM
measured.attribute: relative viability
Give your answer as a number; write no unit.

Lookup: # get_value(readout='relative viability', item= CC(=O)O[C@@]12CO[C@@H]1C[C@H](O)[C@@]1(C)C(=O)[C@H](O)C3=C(C)[C@@H](OC(=O)[C@H](O)[C@@H](NC(=O)OC(C)(C)C)c4ccccc4)C[C@@](O)([C@@H](OC(=O)c4ccccc4)[C@H]21)C3(C)C [Docetaxel] + Nc1ncn([C@H]2C[C@H](O)[C@@H](CO)O2)c(=O)n1 [Decitabine] (partner 2 µM) )
Found: 0.461
